# Tested on: KM12
# ASSAY NOTES: NCI tumour cell line growth inhibition, 48 h
Calls of active or inactive are those of the source. Cut-off read from the data, not from the text of the source: active = GI50 up to about 1.1 µM and inactive = higher.
Your answer must be one of the following: true = active, false = inactive

(Q) Outcome? O=c1ccc2cc(O)c(O)cc2o1
(A) false

----------
# Test system: MOLT-4
# ASSAY NOTES: NCI tumour cell line growth inhibition, 48 h
Calls of active or inactive are those of the source. No stated cut-off is given here; in the data, active = GI50 up to about 1.1 µM and inactive = higher.
Your answer must be one of the following: yes (active), no (inactive)

| MOLECULE | CLASS |
| --- | --- |
| c1ccc2c(c1)C1=NCCN1c1ccccc1-2 | no |
| COc1cc(C2c3cc4c(cc3[C@@H](Nc3ccc(C#N)cc3)C3COC(=O)[C@H]23)OCO4)cc(OC)c1O (stereo partly specified) | yes |
| O=C1CCC2(CC1)Cc1ccccc1C2O (stereo unspecified) | no |
| CCOC(=O)Cc1csc2[n+]1C(=O)/C(=C\c1cccc(Cl)c1Cl)S2 | no |
| OC1OC2COC(c3ccccc3)OC2C(O)C1O (stereo unspecified) | no |
| CC(=O)n1cc(CC(C)O)c(=O)[nH]c1=O (stereo unspecified) | no |
| [O-][N+]1(CC[N+]2([O-])CCCCC2)CCCCC1 | no |
| Cc1ccc(C)n1-c1ccccc1C1SCCCS1 | no |

(Q) Outcome? CCOC(=O)c1c(-c2ccccc2)c(-c2ccccc2)cn1C
(A) no

(Q) Outcome? Cc1ccc(OCC2OC(C#N)C(Oc3ccc(C)cc3)C2Oc2ccc(C)cc2)cc1 (stereo unspecified)
(A) no

(Q) Outcome? CCOC(=O)c1nc2ccccc2nc1Nc1cc(OC)c(OC)c(OC)c1
(A) no

Hello, the source for this data is ChEMBL document CHEMBL1201862, in case you need it.
